assay: Solubility of the compound in DMEM media assessed as forward light scattering by compound by microplate neplhelometric analysis; type: physicochemical; details: DMEM medium
Readings of solubility kinetic for the listed compounds
Measure name: solubility kinetic (µM)

Entry smiles | Relational operator | Assay value
CC(C)(C)C(=O)OCOc1c(-c2ccc(O)c(O)c2)oc2cc(O)cc(O)c2c1=O | = | 100
O=C(O)CNC(=O)Oc1cc(-c2oc3cc(O)cc(O)c3c(=O)c2O)ccc1O | > | 400
CC(C)(C)C(=O)OCOc1cc(O)c2c(=O)c(O)c(-c3ccc(O)c(O)c3)oc2c1 | = | 50

* * *

assay: Chemical stability of the compound in PBS buffer at pH 7.4 assessed as half life by HPLC analysis; format: physicochemical

Compound | half-life
O=C(O)CNC(=O)Oc1cc(-c2oc3cc(O)cc(O)c3c(=O)c2O)ccc1O [QC-12] | 600 min
O=c1c(O)c(-c2ccc(O)c(O)c2)oc2cc(O)cc(O)c12 [QUERCETIN] | 600 min
CC(C)(C)C(=O)OCOc1c(-c2ccc(O)c(O)c2)oc2cc(O)cc(O)c2c1=O | > 4320 min
CC(C)(C)C(=O)OCOc1cc(O)c2c(=O)c(O)c(-c3ccc(O)c(O)c3)oc2c1 | > 4320 min

* * *

test: Chemical stability of the compound in cell-free DMEM culture media assessed as half life by HPLC analysis in presence of FBS; assay type: physicochemical; details: cell-free DMEM culture medium with FBS

Compound | Relational operator | half-life, h
CC(C)(C)C(=O)OCOc1c(-c2ccc(O)c(O)c2)oc2cc(O)cc(O)c2c1=O | = | 52
CC(C)(C)C(=O)OCOc1cc(O)c2c(=O)c(O)c(-c3ccc(O)c(O)c3)oc2c1 | = | 4
O=c1c(O)c(-c2ccc(O)c(O)c2)oc2cc(O)cc(O)c12 [QUERCETIN] | < | 0.5
O=C(O)CNC(=O)Oc1cc(-c2oc3cc(O)cc(O)c3c(=O)c2O)ccc1O [QC-12] | = | 0.8

* * *

experiment: Aqueous solubility of the compound in PBS assessed as forward light scattering by compound by microplate neplhelometric analysis; assay type: physicochemical

Molecule | Unit info | Relational operator | solubility kinetic
CC(C)(C)C(=O)OCOc1cc(O)c2c(=O)c(O)c(-c3ccc(O)c(O)c3)oc2c1 | µM | = | 5
CC(C)(C)C(=O)OCOc1c(-c2ccc(O)c(O)c2)oc2cc(O)cc(O)c2c1=O | µM | = | 100
O=C(O)CNC(=O)Oc1cc(-c2oc3cc(O)cc(O)c3c(=O)c2O)ccc1O [QC-12] | µM | > | 400
O=c1c(O)c(-c2ccc(O)c(O)c2)oc2cc(O)cc(O)c12 [QUERCETIN] | µM | = | 100

* * *

Entries and their measured EC50 follow.
system: HCT-116; assay: Antiproliferative activity against human HCT116 cells after 24 hrs by MTT assay; type: functional, cell-based; conditions: HCT-116, 24 h

Compound | EC50
CC(C)(C)C(=O)OCOc1c(-c2ccc(O)c(O)c2)oc2cc(O)cc(O)c2c1=O | > 100 µM
CC(C)(C)C(=O)OCOc1cc(O)c2c(=O)c(O)c(-c3ccc(O)c(O)c3)oc2c1 | 36 µM
O=c1c(O)c(-c2ccc(O)c(O)c2)oc2cc(O)cc(O)c12 [QUERCETIN] | > 100 µM

* * *

molecules and their reported half-life
assay: Chemical stability of the compound in buffer at pH 2 assessed as half life by HPLC analysis; format: physicochemical

Entry smiles | half-life
O=c1c(O)c(-c2ccc(O)c(O)c2)oc2cc(O)cc(O)c12 | 7 h
CC(C)(C)C(=O)OCOc1c(-c2ccc(O)c(O)c2)oc2cc(O)cc(O)c2c1=O | 20 h
CC(C)(C)C(=O)OCOc1cc(O)c2c(=O)c(O)c(-c3ccc(O)c(O)c3)oc2c1 | 7 h
O=C(O)CNC(=O)Oc1cc(-c2oc3cc(O)cc(O)c3c(=O)c2O)ccc1O | 3 h

* * *

The following compounds are listed with their measured solubility kinetic values.
experiment: Solubility of the compound in cell-free DMEM media assessed as forward light scattering by compound by microplate neplhelometric analysis in presence of FBS; format: physicochemical; settings: cell-free DMEM medium with FBS

Compound | solubility kinetic
CC(C)(C)C(=O)OCOc1c(-c2ccc(O)c(O)c2)oc2cc(O)cc(O)c2c1=O | > 400 µM
O=C(O)CNC(=O)Oc1cc(-c2oc3cc(O)cc(O)c3c(=O)c2O)ccc1O [QC-12] | > 400 µM
CC(C)(C)C(=O)OCOc1cc(O)c2c(=O)c(O)c(-c3ccc(O)c(O)c3)oc2c1 | 200 µM
